tested on: SK-MEL-2 melanoma; assay: NCI-60 one-dose screen, 48 h (100 = growth as untreated, 0 = no growth, -100 = all killed); conditions: 10 µM unless noted
About 83,000 compounds went through this panel and 20% of them were active in at least one assay; those are over-represented in the sample as a whole.
Cut-off 70% on growth: below means Fulfilled, at or above means Not fulfilled.

Data request: For this compound, is growth lower than 70%? c1cncc(CNc2ccccc2-c2nnc(Nc3ccc4c(c3)OCCO4)o2)c1
Data returned: Fulfilled

Data request: For this compound, is growth lower than 70%? COc1ccc2c(c1)C(C)Cc1c(N(C)C)ncnc1N2C (stereo unspecified)
Data returned: Fulfilled

Data request: For this compound, is growth lower than 70%? O=C1Nc2cc(Cl)ccc2Oc2cc(Oc3ccccc3)ccc21
Data returned: Fulfilled

Data request: For this compound, is growth lower than 70%? Cc1nc(Nc2cccnc2)sc1C(=O)/C=C/c1ccc(F)cc1
Data returned: Not fulfilled

Data request: For this compound, is growth lower than 70%? CCCCNc1nnc(-c2cc(-c3cc4ccccc4o3)nn2-c2ccccc2)o1
Data returned: Not fulfilled

Data request: For this compound, is growth lower than 70%? COc1ccc(S(=O)(=O)N2CCN(c3cc4c(cc3F)c(=O)c(C(=O)O)cn4C3CC3)CC2)c(OC)c1
Data returned: Not fulfilled

Data request: For this compound, is growth lower than 70%? O=c1c2cccc3c(Nc4ccc(F)cc4)ccc(c32)c2nc3ccccc3n12
Data returned: Not fulfilled

Data request: For this compound, is growth lower than 70%? O=C(/C=C/CN1CCOCC1)Nc1cc2c(Nc3cccc(Cl)c3F)ncnc2cc1OCCOC(F)F
Data returned: Not fulfilled

Data request: For this compound, is growth lower than 70%? O=C(CCl)NCCNc1nccc(Nc2ccc(S(=O)(=O)Nc3ccccn3)cc2)n1
Data returned: Fulfilled

Data request: For this compound, is growth lower than 70%? Nc1nc(-c2ccccc2)cs1
Data returned: Not fulfilled

Data request: For this compound, is growth lower than 70%? CCN1C(=O)N(CC)C2C1NN=c1s/c(=C\c3ccccn3)c(=O)n12 (stereo unspecified)
Data returned: Fulfilled

Data request: For this compound, is growth lower than 70%? CC(C)N(Cc1ccc(CN(C(=O)CCl)C(C)C)cc1)C(=O)CCl
Data returned: Fulfilled

Data request: For this compound, is growth lower than 70%? O=c1[nH]c(CN2CCN(c3ccccc3F)CC2)nc2sc3c(c12)CCC3
Data returned: Not fulfilled

Data request: For this compound, is growth lower than 70%? CC(=O)Nc1nc(C(=O)N2N=C(C)/C(=C/c3ccccc3)C2=O)cs1
Data returned: Not fulfilled

Data request: For this compound, is growth lower than 70%? COc1cccc(-c2nc3sccn3c2-c2ccnc(NCCCNS(=O)(=O)c3ccccc3)n2)c1
Data returned: Fulfilled

Data request: For this compound, is growth lower than 70%? Clc1nc(Cl)c2ncn(C/C=C/Cn3cnc4c(Cl)nc(Cl)nc43)c2n1
Data returned: Not fulfilled

Data request: For this compound, is growth lower than 70%? COc1cccc2cc(-c3cc4ccccc4[nH]3)c(=NC(=O)c3ccc(Cl)cc3)oc12
Data returned: Not fulfilled

Data request: For this compound, is growth lower than 70%? C/C1=C\CCC2(C)OC2CC2CCC(C)(O)C(CC1)C2(C)C (stereo unspecified)
Data returned: Not fulfilled

Data request: For this compound, is growth lower than 70%? O=C1CCCCN1CCCCC#Cc1ccccc1C#Cc1ccccn1
Data returned: Fulfilled

Data request: For this compound, is growth lower than 70%? Cc1cc(Nc2nc(-c3ccncc3)nc3ccccc23)n[nH]1
Data returned: Fulfilled

Data request: For this compound, is growth lower than 70%? CC1Cc2c(N(C)C)ncnc2N(C)c2ccc(Cl)cc21 (stereo unspecified)
Data returned: Fulfilled

Data request: For this compound, is growth lower than 70%? COc1ccccc1CNCCCN1C(=O)c2ccc3c4c(ccc(c24)C1=O)C(=O)N(CCCNCCCCNCCCCN)C3=O
Data returned: Fulfilled

Data request: For this compound, is growth lower than 70%? COc1cc(OC)c(C(=O)/C=C/c2cccc(C#N)c2)c(OC)c1
Data returned: Fulfilled

Data request: For this compound, is growth lower than 70%? Nc1c(C(=O)Nc2cccc(Cl)c2Cl)sc2nc3c(cc12)C(=O)CCC3
Data returned: Fulfilled

Data request: For this compound, is growth lower than 70%? CCN(CC)CCC(=O)c1cccc2ccccc12
Data returned: Not fulfilled

Data request: For this compound, is growth lower than 70%? COc1cc(/C=C/C(=O)c2ccc(NC(=O)CN3CCN(c4cc5c(cc4F)c(=O)c(C(=O)O)cn5C4CC4)CC3)cc2)cc(OC)c1OC
Data returned: Fulfilled

Data request: For this compound, is growth lower than 70%? COc1ccc(S(=O)(=O)NCCNc2nccc(-c3c(-c4ccccc4)nc4sccn34)n2)cc1
Data returned: Fulfilled

Data request: For this compound, is growth lower than 70%? CN(C)c1nc(N)c(N=O)c(N)n1
Data returned: Not fulfilled

Data request: For this compound, is growth lower than 70%? COc1ccc(/C=C/C(=O)/C=C/c2cc3ccc(Cl)cc3[nH]c2=O)cc1
Data returned: Not fulfilled

Data request: For this compound, is growth lower than 70%? COc1cc(/C=C\c2cc(OC)c(OC)c(OC)c2)cc(N/C=C\C(=O)c2c[nH]c3ccccc23)c1OC
Data returned: Fulfilled

Data request: For this compound, is growth lower than 70%? C#CCC1(c2ccc(F)c(F)c2)NS(=O)(=O)c2ccccc21 (stereo unspecified)
Data returned: Not fulfilled

Data request: For this compound, is growth lower than 70%? COc1cc(NC(=O)CSc2nc3ccc(C)cc3c(=O)n2-c2ccccc2)cc(OC)c1OC
Data returned: Not fulfilled

Data request: For this compound, is growth lower than 70%? CC(=O)n1cc([C@H]2CC[C@H](c3cn(C(C)=O)c4ccccc34)c3c2[nH]c2ccccc32)c2ccccc21
Data returned: Not fulfilled

Data request: For this compound, is growth lower than 70%? C=C1C(=O)O[C@H]2[C@H]1CC/C(COC(=O)NCCc1ccc(Br)cc1)=C\CC[C@@]1(C)O[C@@H]21
Data returned: Fulfilled

Data request: For this compound, is growth lower than 70%? CCCCn1c(=O)c(C2CNC(=O)c3ccccc3N2)cc2ccccc21 (stereo unspecified)
Data returned: Not fulfilled

Data request: For this compound, is growth lower than 70%? CCCS(=O)(=O)c1nc(NC2CC2)cc(-c2ccc3c(ccn3C3CC(C)(C)NC(C)(C)C3)c2)n1
Data returned: Fulfilled

Data request: For this compound, is growth lower than 70%? COc1ccc(/C=C/C(=O)c2cc(OC)c(OC)c(OC)c2)cc1OCc1cn(Cc2ccc(F)cc2)nn1
Data returned: Not fulfilled

Data request: For this compound, is growth lower than 70%? O=C(NCCCN1CCN(CCCNC(=O)C2CCCCC2)CC1)C1CCCCC1
Data returned: Not fulfilled

Data request: For this compound, is growth lower than 70%? CC(Br)C(Br)c1cc2c(cc1Br)OCO2 (stereo unspecified)
Data returned: Not fulfilled

// data source = PubChem BioAssay (NCI)
